test: Primary redox qHTS assay for identification of artifact compounds. (AID 1845223); settings: Amplex Red/HRP redox cycling with DTT, fluorescence; series mostly up to 53.8 µM;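 further: 0% = DMSO and 100% = reference compound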
Results filed as inconclusive are left out. Calls of active or inactive are those of the source. The call rests on the fitted dose curve; in most records, active means well fitted activation curve with a large enough effect; inconclusive means small, poorly fitted or top-dose-only effect; inactive means flat fitted curve, though single readings scatter.

>  <molecule>
CSc1ccc(C(=O)N[C@@H]2CCCC[C@@H]2NC(=O)CNC(=O)c2cc(C(F)(F)F)ccc2NC(=O)NC(C)C)cc1

>  <redox activity (% of DA3003)>
inactive

$$$$
>  <molecule>
CN[C@H](CC(C)C)C(=O)N[C@H]1C(=O)N[C@@H](CC(N)=O)C(=O)N[C@H]2C(=O)N[C@H]3C(=O)N[C@H](C(=O)N[C@H](C(=O)O)c4cc(O)cc(O)c4-c4cc3ccc4O)[C@H](O[C@H]3C[C@](C)(N)[C@@H](O)[C@H](C)O3)c3ccc(c(Cl)c3)Oc3cc2cc(c3O[C@@H]2O[C@H](CO)[C@@H](O)[C@H](O)[C@H]2O[C@H]2C[C@](C)(NCc3ccc(-c4ccc(Cl)cc4)cc3)[C@@H](O)[C@H](C)O2)Oc2ccc(cc2Cl)[C@H]1O

>  <redox activity (% of DA3003)>
inactive

$$$$
>  <molecule>
CN(C)C(=O)NC1CCC(CCN2CCN(c3cccc(Cl)c3Cl)CC2)CC1 (centres undefined)

>  <redox activity (% of DA3003)>
-4.67% [at 11.5 µM] (inactive)

$$$$
>  <molecule>
COc1ncc2cc(C(=O)Nc3cc(C(=O)NCc4cccc(Cl)c4)ccc3Cl)c(=O)[nH]c2n1

>  <redox activity (% of DA3003)>
inactive

$$$$
